- system: TYK2 (Homo sapiens)
- experimental-details: TR-FRET STAT3 phosphorylation assay, TYK2
- condition-parameters: read-out: IC50 TYK2, 10 μM ATP, GFP-STAT3
pIC50: −log10 of the molar value.

- sample-smiles: "NC(=O)c1nc(-c2c(F)cccc2Cl)oc1Nc1ccc(C(=O)N2CCOCC2)cc1"
  pIC50: 7.89

###

- system: TYK2 (Homo sapiens, UniProt P29597)
- Sequence (P29597 whole entry): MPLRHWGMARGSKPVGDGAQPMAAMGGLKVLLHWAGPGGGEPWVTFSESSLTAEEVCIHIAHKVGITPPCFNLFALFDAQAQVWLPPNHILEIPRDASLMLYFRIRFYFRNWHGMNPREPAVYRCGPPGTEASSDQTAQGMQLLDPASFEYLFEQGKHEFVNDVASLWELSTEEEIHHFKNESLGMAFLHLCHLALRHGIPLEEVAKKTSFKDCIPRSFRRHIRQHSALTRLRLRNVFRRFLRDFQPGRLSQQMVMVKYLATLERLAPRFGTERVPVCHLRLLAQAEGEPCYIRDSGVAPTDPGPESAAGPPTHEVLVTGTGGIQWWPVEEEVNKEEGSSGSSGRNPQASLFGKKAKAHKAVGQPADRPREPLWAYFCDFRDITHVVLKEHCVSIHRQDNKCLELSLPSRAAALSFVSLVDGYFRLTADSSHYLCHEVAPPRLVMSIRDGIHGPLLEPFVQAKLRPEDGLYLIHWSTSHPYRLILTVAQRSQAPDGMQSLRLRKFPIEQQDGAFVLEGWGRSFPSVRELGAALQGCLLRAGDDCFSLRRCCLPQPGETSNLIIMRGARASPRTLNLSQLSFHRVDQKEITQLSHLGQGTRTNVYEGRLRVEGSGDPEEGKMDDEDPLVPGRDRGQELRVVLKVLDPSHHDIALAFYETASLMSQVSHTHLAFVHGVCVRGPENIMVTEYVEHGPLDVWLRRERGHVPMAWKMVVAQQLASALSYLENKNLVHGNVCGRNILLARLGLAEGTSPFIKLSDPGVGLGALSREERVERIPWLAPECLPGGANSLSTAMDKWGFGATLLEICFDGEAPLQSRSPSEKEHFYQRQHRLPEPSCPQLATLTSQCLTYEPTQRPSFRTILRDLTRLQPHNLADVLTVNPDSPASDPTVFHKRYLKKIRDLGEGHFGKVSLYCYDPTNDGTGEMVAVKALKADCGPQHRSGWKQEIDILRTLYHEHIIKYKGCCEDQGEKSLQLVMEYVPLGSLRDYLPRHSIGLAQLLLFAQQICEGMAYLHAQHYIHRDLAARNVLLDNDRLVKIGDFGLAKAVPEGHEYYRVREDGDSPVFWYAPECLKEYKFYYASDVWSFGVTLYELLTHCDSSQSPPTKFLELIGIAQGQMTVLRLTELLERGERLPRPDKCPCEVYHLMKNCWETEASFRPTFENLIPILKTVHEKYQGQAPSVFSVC
- experimental-details: IL-12-induced pSTAT4 in primary CD4+ cells
- Type: cell-based
- condition-parameters: read-out: IC50 TYK2, pSTAT (primary cells), IL-12, pSTAT4
pIC50: −log10 of the molar value.
property: pIC50

- sample-smiles: "NC(=O)c1nc(-c2c(F)cccc2Cl)oc1Nc1ccc(C(=O)N2CCOCC2)cc1"
  reported-measurement: 6.97

###

- system: JAK1 (Homo sapiens)
- Sequence (P23458 whole entry): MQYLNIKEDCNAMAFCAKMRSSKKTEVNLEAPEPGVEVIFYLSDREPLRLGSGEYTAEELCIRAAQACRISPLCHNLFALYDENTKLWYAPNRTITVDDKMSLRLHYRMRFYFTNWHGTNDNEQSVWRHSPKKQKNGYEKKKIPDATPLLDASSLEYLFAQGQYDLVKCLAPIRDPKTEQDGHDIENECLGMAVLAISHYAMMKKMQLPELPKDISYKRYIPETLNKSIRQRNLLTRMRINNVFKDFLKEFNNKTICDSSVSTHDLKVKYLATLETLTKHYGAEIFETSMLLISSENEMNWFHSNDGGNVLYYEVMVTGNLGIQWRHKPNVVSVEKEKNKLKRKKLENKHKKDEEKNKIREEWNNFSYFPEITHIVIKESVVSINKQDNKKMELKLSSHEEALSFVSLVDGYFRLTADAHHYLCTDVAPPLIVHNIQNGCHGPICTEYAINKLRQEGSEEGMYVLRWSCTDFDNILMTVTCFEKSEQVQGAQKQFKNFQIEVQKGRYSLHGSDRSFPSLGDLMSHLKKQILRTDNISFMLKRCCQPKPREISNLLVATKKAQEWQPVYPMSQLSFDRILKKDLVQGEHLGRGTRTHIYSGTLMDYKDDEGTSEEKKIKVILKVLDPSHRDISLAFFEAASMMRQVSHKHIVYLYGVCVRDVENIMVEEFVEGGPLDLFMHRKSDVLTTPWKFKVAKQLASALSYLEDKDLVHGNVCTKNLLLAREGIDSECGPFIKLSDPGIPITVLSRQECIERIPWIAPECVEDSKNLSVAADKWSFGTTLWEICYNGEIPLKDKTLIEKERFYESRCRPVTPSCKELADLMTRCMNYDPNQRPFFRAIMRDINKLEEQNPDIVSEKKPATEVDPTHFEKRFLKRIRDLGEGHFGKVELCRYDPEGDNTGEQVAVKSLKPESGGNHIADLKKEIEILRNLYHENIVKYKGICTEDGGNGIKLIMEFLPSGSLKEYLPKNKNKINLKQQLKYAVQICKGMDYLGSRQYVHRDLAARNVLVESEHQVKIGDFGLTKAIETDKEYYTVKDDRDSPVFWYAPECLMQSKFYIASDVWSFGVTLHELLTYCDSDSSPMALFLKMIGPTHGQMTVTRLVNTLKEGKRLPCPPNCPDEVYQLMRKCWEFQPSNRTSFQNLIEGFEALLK
- experimental-details: 33P-ATP kinase assay, JAK1
- Format: biochemical
- condition-parameters: read-out: IC50 JAK1; 33P-ATP assay, 10 μM ATP
pIC50: −log10 of the molar value.

- molecule: "NC(=O)c1nc(-c2c(F)cccc2Cl)oc1Nc1ccc(C(=O)N2CCOCC2)cc1 [SAR-20347]"
  pIC50: 7.64

###

- system: TYK2 (Homo sapiens)
- experimental-details: IL-12-induced pSTAT4 in NK-92 cells
- Type: cell-based
- condition-parameters: read-out: IC50 TYK2, pSTAT (cell lines), IL-12, pSTAT4
pIC50: −log10 of the molar value.
property: pIC50

- sample-smiles: "NC(=O)c1nc(-c2c(F)cccc2Cl)oc1Nc1ccc(C(=O)N2CCOCC2)cc1"
  reported-measurement: 6.90

###

- system: JAK3 (Homo sapiens, UniProt P52333)
- Sequence (P52333 whole entry): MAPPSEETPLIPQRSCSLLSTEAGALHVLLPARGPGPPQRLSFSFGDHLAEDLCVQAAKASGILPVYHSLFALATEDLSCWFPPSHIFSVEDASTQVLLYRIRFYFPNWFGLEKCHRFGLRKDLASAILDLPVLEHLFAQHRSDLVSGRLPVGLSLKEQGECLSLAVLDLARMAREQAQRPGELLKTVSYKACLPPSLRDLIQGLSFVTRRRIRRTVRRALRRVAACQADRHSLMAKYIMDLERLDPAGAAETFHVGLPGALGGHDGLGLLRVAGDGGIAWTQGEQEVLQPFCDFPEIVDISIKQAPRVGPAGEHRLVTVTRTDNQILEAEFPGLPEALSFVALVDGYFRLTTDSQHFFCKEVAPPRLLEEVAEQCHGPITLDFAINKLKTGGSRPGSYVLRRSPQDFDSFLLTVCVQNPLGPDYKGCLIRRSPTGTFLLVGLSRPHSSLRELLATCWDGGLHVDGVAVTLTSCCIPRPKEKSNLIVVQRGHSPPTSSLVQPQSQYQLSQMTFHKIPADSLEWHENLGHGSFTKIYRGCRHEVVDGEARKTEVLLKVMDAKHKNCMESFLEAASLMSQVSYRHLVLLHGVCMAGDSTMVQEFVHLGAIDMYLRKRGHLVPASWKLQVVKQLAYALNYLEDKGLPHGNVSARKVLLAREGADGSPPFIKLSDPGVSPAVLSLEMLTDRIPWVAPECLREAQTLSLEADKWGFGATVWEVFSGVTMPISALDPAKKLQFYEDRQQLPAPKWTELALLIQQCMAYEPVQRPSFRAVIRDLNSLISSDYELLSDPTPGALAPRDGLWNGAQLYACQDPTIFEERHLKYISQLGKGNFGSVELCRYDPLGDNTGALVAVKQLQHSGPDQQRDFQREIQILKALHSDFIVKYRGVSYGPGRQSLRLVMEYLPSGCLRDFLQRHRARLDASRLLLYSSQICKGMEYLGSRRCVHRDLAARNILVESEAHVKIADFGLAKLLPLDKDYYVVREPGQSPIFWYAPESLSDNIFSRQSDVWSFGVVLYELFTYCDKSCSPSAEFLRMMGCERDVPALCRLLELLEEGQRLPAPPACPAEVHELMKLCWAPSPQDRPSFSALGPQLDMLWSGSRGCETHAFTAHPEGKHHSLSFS
- experimental-details: IL-2-induced pSTAT5 in PBMCs
- Type: cell-based
- condition-parameters: read-out: IC50 JAK3, pSTAT (primary cells), IL-2, pSTAT5
property: IC50 (nM)

- molecule: "NC(=O)c1nc(-c2c(F)cccc2Cl)oc1Nc1ccc(C(=O)N2CCOCC2)cc1 [SAR-20347]"
  system: "JAK3 (Homo sapiens, UniProt P52333)"
  unit-text: "nM"
  reported-measurement: 1610
